pIC50: −log10 of the molar value.
Compiled record: pIC50 values for HPK1 (Homo sapiens (Human), UniProt Q92918) across several sources.

Known results for compounds:
1) COc1cc2c(cc1Nc1ncc(C(N)=O)c(Nc3ccccc3Br)n1)CNCC2 : 10.05
2) COc1cc2c(cc1Nc1ncc(C(N)=O)c(NC3C4CC3C4)n1)CN(C)CC2 (stereo not drawn) : 8.88
3) C#Cc1ccccc1Nc1nc(Nc2cc3c(cc2OC)CCN(C)C3)ncc1C(N)=O : 9.21

Query: Any idea what pIC50 was measured for O=C1NCc2c(-c3cnc4c(F)cccn34)ncc(Nc3ccc(C4(O)CCOCC4)cn3)c21 ?
Result: > 7.00

Query: Any idea what pIC50 was measured for CC(C)c1nc2c(N3CC[C@@H](CN)C3)c(NC(=O)c3ccc(=O)n(-c4c(F)cccc4F)n3)ccc2n1C ?
Result: > 7.00
